System: pSer473-Akt in A2780 cells
Experiment: pSer473 Akt assay to monitor PI3K pathway in A2780 cells (MSD)
Assay type: cell-based
Settings: Homo sapiens; A2780 cells; read-out: A2780 pAKT 473 EC50
Experimental endpoint: EC50

// solved cases for EC50 follow
INSERT INTO results (compound, reported) VALUES
  ('CC(=O)Nc1cn2cc(-c3cnc(N)c(-c4ccc(C(F)(F)F)cc4)c3)ccc2n1 [Example 93]', '< 1 µM'),
  ('CC(C)(C)OC(=O)NCCCC(=O)Nc1cn2nc(-c3cnc(N)c(C(F)(F)F)c3)ccc2n1 [Example 79]', '< 10 µM');

Task item: Could you share which EC50 value was measured for Nc1ncc(-c2ccc3nc(NC(=O)CCCO)cn3c2)cc1C(F)(F)F [Example 27] ?
Reply: < 1 µM

Task item: Please answer likewise for CC(=O)Nc1cn2cc(-c3cnc(N)c(-c4ccc(OC(F)(F)F)cc4)c3)ccc2n1 [Example 97]
Reply: < 10 µM

Task item: How about Nc1ncc(-c2ccc3nc(NC(=O)c4ccc(N5CCNCC5)nc4)cn3c2)cc1C(F)(F)F [Example 126] ?
Reply: < 1 µM

====

Reported EC50 values for a set of molecules
Tested on: A2780 cells
Assay: Viability assay in A2780 (Cell Titer Glo)
Format: cell-based, human
Conditions: Homo sapiens; A2780 cells; read-out: A2780 Cell prolif. EC50

// worked examples, EC50 included
INSERT INTO assay_data (structure_smiles, system_under_test, reported) VALUES
  ('CC(=O)Nc1cn2cc(-c3cnc(N)c(Oc4cccc(F)c4)n3)ccc2n1', 'A2780 cells', '< 1 µM'),
  ('CCN(CC)C(=O)c1cc(-c2ccc3nc(NC(C)=O)cn3c2)cnc1N', 'A2780 cells', '< 10 µM'),
  ('COc1cc(-c2ccc3nc(NC(C)=O)cn3c2)c(C)nc1N', 'A2780 cells', '< 10 µM'),
  ('COc1nc(-c2cc(F)c3nc(NC(C)=O)cn3c2)cnc1N', 'A2780 cells', '< 25 µM'),
  ('CCCc1c(NC(C)=O)nc2ccc(-c3cnc(N)c(C(F)(F)F)c3)cn12', 'A2780 cells', '< 25 µM');

Task item: Look up EC50: CC(=O)Nc1cn2nc(-c3cnc(N)c(C(=O)NCCN)c3)ccc2n1
Reply: < 25 µM

Task item: Next molecule up: Nc1ncc(-c2ccc3nc(NC(=O)CCO)cn3c2)cc1C(F)(F)F
Reply: < 10 µM

Task item: Then CNCC(=O)Nc1cn2nc(-c3cnc(N)c(C(F)(F)F)c3)ccc2n1 ?
Reply: < 1 µM

Task item: Would you kindly repeat that for CC(=O)Nc1cn2cc(-c3cnc(N)c(-c4ccc(OC(F)(F)F)cc4)c3)ccc2n1 ?
Reply: < 1 µM

Task item: And what about the molecule CC(=O)Nc1cn2cc(-c3cnc(N)c(-c4ccccc4N4CCOCC4)c3)ccc2n1 ?
Reply: < 1 µM

Task item: Param item: CC(=O)Nc1cn2cc(-c3cnc(N)c(Cl)c3)ccc2n1
Reply: < 10 µM

Task item: Also CC(=O)Nc1cn2cc(-c3cnc(N)c(C(=O)NCCN4CCCC4)n3)ccc2n1 ?
Reply: < 1 µM

====

# EC50 per entry
Tested on: A2780 cells
Assay: Viability assay in A2780 (Cell Titer Glo)
Format: cell-based, human
Conditions: Homo sapiens; A2780 cells; read-out: A2780 Cell prolif. EC50

INSERT INTO assay_data (molecule, system_under_test, reported) VALUES
  ('NCCC(=O)Nc1cn2nc(-c3cnc(N)c(C(F)(F)F)c3)ccc2n1', 'A2780 cells', '< 10 µM'),
  ('C[C@H](N)C(=O)Nc1cn2nc(-c3cnc(N)c(C(F)(F)F)c3)ccc2n1', 'A2780 cells', '< 10 µM'),
  ('COC(=O)C1CCN(C(=O)Nc2cn3cc(-c4cnc(N)c(C(F)(F)F)c4)ccc3n2)C1 (centres unmarked)', 'A2780 cells', '< 10 µM'),
  ('Nc1ncc(-c2ccc3nc(NC(=O)CCCn4ccnc4)cn3c2)cc1C(F)(F)F', 'A2780 cells', '< 10 µM');

Task item: Need EC50, item CC(=O)Nc1cn2cc(-c3ccc(N)nc3C)ccc2n1
Reply: < 25 µM

====

Test system: A2780 cells
Test: Viability assay in A2780 (Cell Titer Glo)
Assay type: cell-based, human
Conditions: Homo sapiens; A2780 cells; read-out: A2780 Cell prolif. EC50
pEC50: −log10 of the molar value.
Items are presented alongside their recorded pEC50.

INSERT INTO assay_data (compound, reported) VALUES
  ('Nc1ncc(-c2ccc3nc(NC(=O)[C@@H]4CCCCN4)cn3c2)cc1C(F)(F)F', '> 5.00');

Task item: Please provide the recorded pEC50 for CC(=O)Nc1nc2ccc(-c3cnc(N)c(C(F)(F)F)c3)cn2c1Cl , tested on A2780 cells.
Reply: > 5.00

Task item: Quick one: CC(C)(C)OC(=O)N1CC[C@H]1C(=O)Nc1cn2cc(-c3cnc(N)c(C(F)(F)F)c3)ccc2n1
Reply: > 4.60

Task item: Queued: CO/N=C/c1cc(-c2ccc3nc(NC(C)=O)cn3c2)cnc1N
Reply: > 4.60

Task item: Another compound to check: C=Cc1c(NC(C)=O)nc2ccc(-c3cnc(N)c(C(F)(F)F)c3)cn12
Reply: > 4.60

Task item: Try the compound CNC(=O)C1CCN(C(=O)Nc2cn3cc(-c4cnc(N)c(C(F)(F)F)c4)ccc3n2)C1 (centres unmarked)
Reply: > 4.60

Task item: Please do the same for CC(=O)Nc1nc2ccc(-c3cnc(N)c(C(F)(F)F)c3)cn2c1C#Cc1ccccc1 as well.
Reply: > 5.00

Task item: For CC(=O)Nc1cn2cc(-c3cnc(N)c(-c4cccc(N5CCOCC5)c4)c3)ccc2n1 then?
Reply: > 6.00

====

Below: a set of entries, each annotated with reported pEC50.
System: A2780 cells
Experiment: Viability assay in A2780 (Cell Titer Glo)
Assay type: cell-based, human
Settings: Homo sapiens; A2780 cells; read-out: A2780 Cell prolif. EC50
pEC50: −log10 of the molar value.

INSERT INTO results (compound, reported) VALUES
  ('Nc1ncc(-c2ccc3nc(NC(=O)N4CCCC4C(F)(F)F)cn3c2)cc1C(F)(F)F (stereo not shown) [Example 191]', '> 5.00'),
  ('CC(=O)Nc1cn2nc(-c3cnc(N)c(-c4ccccc4F)c3)ccc2n1 [Example 81]', '> 6.00'),
  ('CC(=O)Nc1cn2c(C)c(-c3cnc(N)c(C(F)(F)F)c3)ccc2n1 [Example 194]', '> 5.00');

// next entry
Task item: Tell me the measured pEC50 of CC(=O)Nc1cccc(-c2c(NC(C)=O)nc3ccc(-c4cnc(N)c(C(F)(F)F)c4)cn23)c1 [Example 9] , please.
Reply: > 4.60

====

Collected EC50 values appear next to each entry.
Tested on: A2780 cells
Experiment: Viability assay in A2780 (Cell Titer Glo)
Format: cell-based, human
Conditions: Homo sapiens; A2780 cells; read-out: A2780 Cell prolif. EC50

INSERT INTO results (structure_smiles, experimental_endpoint, reported) VALUES
  ('CNCC(=O)Nc1cn2cc(-c3cnc(N)c(OCCOC)n3)ccc2n1', 'EC50', '< 10 µM'),
  ('CCOC(=O)CC(=O)Nc1cn2cc(-c3cnc(N)c(C(F)(F)F)c3)ccc2n1', 'EC50', '< 10 µM'),
  ('CC(C)(C)OC(=O)N1CC[C@H](OCC(=O)Nc2cn3nc(-c4cnc(N)c(C(F)(F)F)c4)ccc3n2)C1', 'EC50', '< 1 µM');

Task item: Looking for the measured EC50 of CC(=O)Nc1cn2nc(-c3cnc(N)c(OC(F)F)c3)ccc2n1 , can you help?
Reply: < 1 µM

====

System: A2780 cells
Test: Viability assay in A2780 (Cell Titer Glo)
Assay type: cell-based, human
Details: A2780 cells; read-out: A2780 Cell prolif. EC50
pEC50: −log10 of the molar value.
Experimental endpoint: pEC50

Task item: Reported pEC50 for CC(C)(C)OC(=O)N1CCC1C(=O)Nc1cn2nc(-c3cnc(N)c(C(F)(F)F)c3)ccc2n1 (stereo not shown) : what is it?
Reply: > 4.60

====

As shown below, each of these compounds has a reported pKi value.
Target: PI3 kinase isoform alpha (Homo sapiens, UniProt P42336)
Sequence (P42336 whole entry, canonical isoform): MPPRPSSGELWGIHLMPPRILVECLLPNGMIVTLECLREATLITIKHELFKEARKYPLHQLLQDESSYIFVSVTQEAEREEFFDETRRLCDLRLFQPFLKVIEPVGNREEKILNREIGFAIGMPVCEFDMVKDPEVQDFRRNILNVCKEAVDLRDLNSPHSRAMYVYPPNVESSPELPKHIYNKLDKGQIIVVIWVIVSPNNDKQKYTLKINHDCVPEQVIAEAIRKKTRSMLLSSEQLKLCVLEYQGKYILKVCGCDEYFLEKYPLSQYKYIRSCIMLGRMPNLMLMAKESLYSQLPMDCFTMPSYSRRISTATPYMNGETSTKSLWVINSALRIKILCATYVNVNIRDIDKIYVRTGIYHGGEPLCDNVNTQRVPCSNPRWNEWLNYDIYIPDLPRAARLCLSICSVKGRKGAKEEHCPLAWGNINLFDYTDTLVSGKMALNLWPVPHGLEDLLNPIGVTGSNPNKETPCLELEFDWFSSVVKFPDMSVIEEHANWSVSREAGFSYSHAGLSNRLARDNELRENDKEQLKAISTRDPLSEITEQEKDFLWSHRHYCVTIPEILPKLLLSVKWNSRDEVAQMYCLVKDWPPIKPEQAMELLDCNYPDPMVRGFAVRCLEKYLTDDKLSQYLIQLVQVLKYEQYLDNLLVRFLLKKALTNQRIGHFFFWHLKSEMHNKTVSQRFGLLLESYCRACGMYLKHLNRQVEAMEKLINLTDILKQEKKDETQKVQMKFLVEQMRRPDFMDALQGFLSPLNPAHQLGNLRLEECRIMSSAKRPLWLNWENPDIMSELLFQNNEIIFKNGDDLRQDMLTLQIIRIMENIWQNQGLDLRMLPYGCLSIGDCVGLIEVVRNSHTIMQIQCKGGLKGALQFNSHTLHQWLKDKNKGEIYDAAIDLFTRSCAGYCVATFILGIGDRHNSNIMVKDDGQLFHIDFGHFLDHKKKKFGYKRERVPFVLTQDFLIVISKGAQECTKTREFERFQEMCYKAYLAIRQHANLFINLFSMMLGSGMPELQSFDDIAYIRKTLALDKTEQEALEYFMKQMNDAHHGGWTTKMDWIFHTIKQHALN
Test: PI3K scintillation proximity kinase assay, alpha isoform
pKi: −log10 of the molar value.

Here's what some known entries look like.
INSERT INTO measurements (structure_smiles, experimental_endpoint, reported) VALUES
  ('CC(C)n1nnc(CCNC(=O)Nc2cn3cc(-c4cnc(N)c(C(F)(F)F)c4)ccc3n2)n1', 'pKi', '> 6.00'),
  ('Nc1ncc(-c2ccc3nc(NC(=O)NCCn4nnc(C5CC5)n4)cn3c2)cc1C(F)(F)F', 'pKi', '> 6.00'),
  ('CCc1nnn(CCNC(=O)Nc2cn3cc(-c4cnc(N)c(C(F)(F)F)c4)ccc3n2)n1', 'pKi', '> 6.00'),
  ('CC(C)n1nnc(CCNC(=O)Nc2cn3cc(-c4ccc(N)nc4)ccc3n2)n1', 'pKi', '> 5.00');

Task item: // lookup pKi for CCn1nnc(CCNC(=O)Nc2cn3cc(-c4cnc(N)c(C(F)(F)F)c4)ccc3n2)n1
Reply: > 6.00
